assay: The drug is tested on Bacteroides fragilis strain: ATCC43859 for biotransformation. The drug concentrations were measured before and after a 12-h incubation by liquid-chromatography-coupled mass spectrometry (LC–MS); conditions: 2 µM
reported endpoint: Bacterial Biotransformation

Worked cases, Bacterial Biotransformation given:
COC1=C(OC)C(=O)C(CCCCCCCCCCO)=C(C)C1=O [IDEBENONE]
Compound metabolized
N#Cc1ccc(C(c2ccc(C#N)cc2)n2cncn2)cc1 [LETROZOLE]
Compound NOT metabolized
COc1c(C)c2c(c(O)c1C/C=C(\C)CCC(=O)OCCN1CCOCC1)C(=O)OC2 [MYCOPHENOLATE MOFETIL]
Compound metabolized
CN(C/C=C/C#CC(C)(C)C)Cc1cccc2ccccc12 [TERBINAFINE]
Compound NOT metabolized
COc1ccc(/C=C/C(=O)Nc2ccccc2C(=O)O)cc1OC
Compound NOT metabolized

Next:
Entry under review: CN(C)CC(c1ccc(O)cc1)C1(O)CCCCC1.O=C(O)CCC(=O)O (stereo not given) [DESVENLAFAXINE SUCCINATE] . Reported Bacterial Biotransformation?
Compound NOT metabolized

====

conditions: bacteroides intestinalis, 12 h, 2 µM
Description: The drug is tested on Bacteroides intestinalis strain: DSM17393 for biotransformation. The drug concentrations were measured before and after a 12-h incubation by liquid-chromatography-coupled mass spectrometry (LC–MS)
reported endpoint: Bacterial Biotransformation

CS(=O)(=O)O.O.O.O.O=C1Cc2cc(CCN3CCN(c4nsc5ccccc45)CC3)c(Cl)cc2N1 [ZIPRASIDONE MESYLATE]
Compound NOT metabolized
CCc1nc(N)nc(N)c1-c1ccc(Cl)cc1
Compound NOT metabolized

====

details: parabacteroides johnsonii, 12 h, 2 µM
Description: The drug is tested on Parabacteroides johnsonii strain: DSM18315 for biotransformation. The drug concentrations were measured before and after a 12-h incubation by liquid-chromatography-coupled mass spectrometry (LC–MS)
reported endpoint: Bacterial Biotransformation

Known results for compounds:
CCOC(=O)C1=C(C)NC(C)=C(C(=O)OC)C1c1cccc([N+](=O)[O-])c1 (stereo unspecified)
Compound metabolized
CC(=O)CC(c1ccccc1)c1c(O)c2ccccc2oc1=O (stereo unspecified)
Compound NOT metabolized
N#Cc1ccc(C(c2ccc(C#N)cc2)n2cncn2)cc1
Compound NOT metabolized
CC1OC(OC2C(O)CC(OC3C(O)CC(OC4CCC5(C)C(CCC6C5CCC5(C)C(C7=CC(=O)OC7)CCC65O)C4)OC3C)OC2C)CC(O)C1O (stereo unspecified)
Compound metabolized
CC(N)C12CC3CC(CC(C3)C1)C2 (stereo unspecified)
Compound NOT metabolized
CCCc1nn(C)c2c(=O)[nH]c(-c3cc(S(=O)(=O)N4CCN(C)CC4)ccc3OCC)nc12.O=C(O)CC(O)(CC(=O)O)C(=O)O [SILDENAFIL CITRATE]
Compound NOT metabolized

Record request: Bacterial Biotransformation value, item `CN1CCC(OC(c2ccccc2)c2ccccc2)CC1`
Compound NOT metabolized

Entry to check: COCCc1ccc(OCC(O)CNC(C)C)cc1.COCCc1ccc(OCC(O)CNC(C)C)cc1.O=C(O)C(O)C(O)C(=O)O (stereo unspecified) [METOPROLOL TARTRATE]
Compound NOT metabolized

Could you do the same for `OCCN(CCO)c1nc(N2CCCCC2)c2nc(N(CCO)CCO)nc(N3CCCCC3)c2n1` , please?
Compound metabolized

Queued: `CCOC(=O)[C@H](CCc1ccccc1)N[C@@H](C)C(=O)N1Cc2ccccc2C[C@H]1C(=O)O`
Compound metabolized

For `CCCCc1nc(Cl)c(CO)n1Cc1ccc(-c2ccccc2-c2nn[nH]n2)cc1` then?
Compound metabolized

====

assay: The drug is tested on Enterobacter cancerogenus strain: ATCC35316 for biotransformation. The drug concentrations were measured before and after a 12-h incubation by liquid-chromatography-coupled mass spectrometry (LC–MS); conditions: 2 µM
reported endpoint: Bacterial Biotransformation

COc1ccc(/C=C/C(=O)Nc2ccccc2C(=O)O)cc1OC
Compound NOT metabolized
Nc1nnc(-c2cccc(Cl)c2Cl)c(N)n1 [LAMOTRIGINE]
Compound NOT metabolized

====

experiment: The drug is tested on Clostridium ramosum strain: DSM1402 for biotransformation. The drug concentrations were measured before and after a 12-h incubation by liquid-chromatography-coupled mass spectrometry (LC–MS); conditions: thomasclavelia ramosa, 2 µM
reported endpoint: Bacterial Biotransformation

Worked set:
C[C@@H](CO)NC(=O)[C@@H]1C=C2c3cccc4[nH]cc(c34)C[C@H]2N(C)C1.O=C(O)/C=C\C(=O)O [ERGONOVINE MALEATE]
Compound NOT metabolized
CC#C[C@]1(O)CC[C@H]2[C@@H]3CCC4=CC(=O)CCC4=C3[C@@H](c3ccc(N(C)C)cc3)C[C@@]21C
Compound NOT metabolized
CC(C(=O)O)c1ccc2c(c1)Cc1cccnc1O2 (stereo unspecified)
Compound metabolized
Cc1ccccc1N1C(=O)c2cc(S(N)(=O)=O)c(Cl)cc2NC1C (stereo unspecified)
Compound NOT metabolized
CC[C@H](C)C(=O)O[C@H]1CCC=C2C=C[C@H](C)[C@H](CC[C@@H]3C[C@@H](O)CC(=O)O3)[C@H]21
Compound metabolized

I am curious: what Bacterial Biotransformation value has been reported for `COc1ccc2c(c1)c(CC(=O)O)c(C)n2C(=O)c1ccc(Cl)cc1` ?
Compound NOT metabolized

====

test: The drug is tested on Clostridium scindens strain: ATCC35704 for biotransformation. The drug concentrations were measured before and after a 12-h incubation by liquid-chromatography-coupled mass spectrometry (LC–MS); conditions: 2 µM
reported endpoint: Bacterial Biotransformation

CC(=O)O[C@]1(C(C)=O)CC[C@H]2[C@@H]3C=C(Cl)C4=CC(=O)[C@@H]5C[C@@H]5[C@]4(C)[C@H]3CC[C@@]21C [CYPROTERONE ACETATE]
Compound metabolized
Nc1nc2ccc(OC(F)(F)F)cc2s1
Compound NOT metabolized
COc1ccc([C@@H]2Sc3ccccc3N(CCN(C)C)C(=O)[C@@H]2OC(C)=O)cc1
Compound NOT metabolized
CC(=O)O[C@H]1C(=O)[C@@]2(C)[C@H]([C@H](OC(=O)c3ccccc3)[C@]3(O)C[C@H](OC(=O)[C@H](O)[C@@H](NC(=O)c4ccccc4)c4ccccc4)C(C)=C1C3(C)C)[C@]1(OC(C)=O)CO[C@@H]1C[C@@H]2O
Compound NOT metabolized
Cc1ccc(-c2cc(C(F)(F)F)nn2-c2ccc(S(N)(=O)=O)cc2)cc1
Compound NOT metabolized
CC(C)(C)NC(=O)[C@H]1CC[C@H]2[C@@H]3CC[C@H]4NC(=O)C=C[C@]4(C)[C@H]3CC[C@]12C [FINASTERIDE]
Compound metabolized

Look at this compound and give its reported Bacterial Biotransformation. `CC[C@H](C)C(=O)O[C@H]1C[C@@H](C)C=C2C=C[C@H](C)[C@H](CC[C@@H]3C[C@@H](O)CC(=O)O3)[C@H]21`
Compound metabolized

Next compound: CNS(=O)(=O)Cc1ccc2[nH]cc(CCN(C)C)c2c1.O=C(O)CCC(=O)O [SUMATRIPTAN SUCCINATE]
Compound NOT metabolized

====

assay: The drug is tested on Parabacteroides merdae strain: ATCC43184 for biotransformation. The drug concentrations were measured before and after a 12-h incubation by liquid-chromatography-coupled mass spectrometry (LC–MS); conditions: 2 µM
reported endpoint: Bacterial Biotransformation

CC[C@@H](CO)NC(=O)[C@@H]1C=C2c3cccc4c3c(cn4C)C[C@H]2N(C)C1.O=C(O)/C=C\C(=O)O [METHYSERGIDE MALEATE]
Compound metabolized
CN(C)C(=O)Oc1cc(OC(=O)N(C)C)cc(C(O)CNC(C)(C)C)c1 (centres undefined)
Compound NOT metabolized
Nc1nc(NC2CC2)c2ncn([C@H]3C=C[C@@H](CO)C3)c2n1.Nc1nc(NC2CC2)c2ncn([C@H]3C=C[C@@H](CO)C3)c2n1.O=S(=O)(O)O [ABACAVIR SULFATE]
Compound NOT metabolized
CC(NC(C)(C)C)C(=O)c1cccc(Cl)c1 (centres undefined)
Compound metabolized

Bacterial Biotransformation for O=c1[nH]c2ccccc2n1C1CCN(CCCC(c2ccc(F)cc2)c2ccc(F)cc2)CC1 [PIMOZIDE] ?
Compound NOT metabolized

Query `CN1C(C(=O)Nc2ccccn2)=C(O)c2sccc2S1(=O)=O` next
Compound NOT metabolized

Same lookup for `O=C(CCCN1CCC(O)(c2ccc(Cl)cc2)CC1)c1ccc(F)cc1` , please.
Compound NOT metabolized

Would you mind doing NC(=O)N1c2ccccc2CC(=O)c2ccccc21 [OXCARBAZEPINE] as well?
Compound NOT metabolized

Same question, COc1ccccc1OCC(O)COC(N)=O (centres undefined) this time
Compound NOT metabolized

====

experiment: The drug is tested on Alistipes indistinctus strain: DSM22520 for biotransformation. The drug concentrations were measured before and after a 12-h incubation by liquid-chromatography-coupled mass spectrometry (LC–MS); details: 2 µM
reported endpoint: Bacterial Biotransformation

N#Cc1ccc(C(c2ccc(C#N)cc2)n2cncn2)cc1 [LETROZOLE]
Compound NOT metabolized
COCCCC/C(=N\OCCN)c1ccc(C(F)(F)F)cc1.O=C(O)/C=C\C(=O)O [FLUVOXAMINE MALEATE]
Compound NOT metabolized
CN1C(=O)CCS(=O)(=O)C1c1ccc(Cl)cc1 (stereo not given) [CHLORMEZANONE]
Compound metabolized
COc1ccc([C@@H]2Sc3ccccc3N(CCN(C)C)C(=O)[C@@H]2OC(C)=O)cc1 [DILTIAZEM]
Compound metabolized
CCN(CC)CCOC(=O)C(Cc1cccc2ccccc12)CC1CCCO1.O=C(O)C(=O)O (stereo not given) [NAFRONYL OXALATE]
Compound NOT metabolized

Form field: reported Bacterial Biotransformation of `Cc1cc2c(cc1S(N)(=O)=O)S(=O)(=O)CCC2`
Compound NOT metabolized

Note, next up: CCOc1cc(CC(=O)N[C@@H](CC(C)C)c2ccccc2N2CCCCC2)ccc1C(=O)O [REPAGLINIDE]
Compound NOT metabolized

Input CCN1CCCC1CNC(=O)c1cc(S(=O)(=O)CC)c(N)cc1OC (stereo not given) [AMISULPRIDE]
Compound NOT metabolized

Source of measurements: ChEMBL document CHEMBL5303573
